Source: PubChem BioAssay AID434931

target: Neuropeptide S receptor (Homo sapiens) (UniProt Q6W5P4); experiment: Confirmation Concentration-Response Assay for Antagonists of the Neuropeptide S Receptor: Robust Characterization of Calcium Signal Transduction; details: CHO-NPSR cells, NPS-induced calcium fluorescence (FDSS); series mostly up to 31.6 µM
Sequence (Q6W5P4 whole entry, looked up): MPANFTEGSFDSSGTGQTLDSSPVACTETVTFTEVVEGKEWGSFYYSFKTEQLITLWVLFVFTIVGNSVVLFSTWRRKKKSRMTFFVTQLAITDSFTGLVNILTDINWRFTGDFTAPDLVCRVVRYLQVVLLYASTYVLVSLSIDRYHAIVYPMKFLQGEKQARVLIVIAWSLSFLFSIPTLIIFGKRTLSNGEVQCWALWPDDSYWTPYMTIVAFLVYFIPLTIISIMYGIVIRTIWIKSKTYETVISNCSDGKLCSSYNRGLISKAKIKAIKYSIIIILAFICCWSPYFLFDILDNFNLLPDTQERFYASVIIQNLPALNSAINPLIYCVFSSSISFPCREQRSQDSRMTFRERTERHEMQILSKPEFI
Records with an inconclusive call do not appear. Active and inactive are the calls of the source. Calls follow the shape of the dose curve; as a rule, active = well fitted inhibition curve with a large enough effect; inconclusive = small, poorly fitted or top-dose-only effect, or another doubt; inactive = no such curve, though single readings can be large or run the other way.
So I've got a bunch of compounds here, and I need their Potency values.

Query: Hello, I am looking for reported Potency with Neuropeptide S receptor (Homo sapiens) (UniProt Q6W5P4) for COc1cccc(C2c3c(ncn(-c4ccc(F)cc4)c3=N)Oc3ccc4ccccc4c32)c1 (centres undefined) . Could you help?
Response: 2200 nM (active)

Query: Next compound up: S=P(c1ccccc1)(c1ccccc1)c1c[n+](C/C=C/c2ccccc2)c2ccccn12
Response: 31.8 nM (active)

Query: Next compound up: O=C(Cc1ccccc1)Nc1ncnc2c1C(c1ccccc1)c1c(ccc3ccccc13)O2 (centres undefined)
Response: 1100 nM (active)

Query: Next compound up: COc1cccc(C2c3c(ncn(-c4ccccc4-c4ccccc4)c3=N)Oc3ccc4ccccc4c32)c1 (centres undefined)
Response: 8740 nM (active)

Query: Next compound up: COc1cccc(C2c3c(ncn(-c4ccccc4OC)c3=N)Oc3ccc4ccccc4c32)c1 (centres undefined)
Response: 1240 nM (active)

Query: Next compound up: COc1cccc(C2c3c(ncn(-c4cccc(Br)c4)c3=N)Oc3ccc4ccccc4c32)c1 (centres undefined)
Response: 2460 nM (active)

Query: Next compound up: COc1cccc(C2c3c(ncn(-c4ccccc4SC)c3=N)Oc3ccc4ccccc4c32)c1 (centres undefined)
Response: 24.6 nM (active)

Query: Next compound up: N=c1c2c(ncn1-c1ccccc1)Oc1ccc3ccccc3c1C2c1ccc2c(c1)CCO2 (centres undefined)
Response: 124 nM (active)

Query: Next compound up: COc1cccc(C2c3c(ncn(-c4cccc(F)c4)c3=N)Oc3ccc4ccccc4c32)c1 (centres undefined)
Response: 69.5 nM (active)

---

target: Neuropeptide S receptor (Homo sapiens); test: Confirmation Concentration-Response Assay for Antagonists of the Neuropeptide S Receptor: Robust Characterization of Calcium Signal Transduction; conditions: CHO-NPSR cells, NPS-induced calcium fluorescence (FDSS); series mostly up to 31.6 µM
Inconclusive results are not listed. Calls of active or inactive are those of the source. Calls follow the shape of the dose curve; as a rule, active = well fitted inhibition curve with a large enough effect; inconclusive = small, poorly fitted or top-dose-only effect, or another doubt; inactive = no such curve, though single readings can be large or run the other way.
Select the correct class. Options are label 1 (active), label 0 (inactive) and nothing else.

Query: Please let me know the test result on file for COc1ccc(C2c3c(n(CCCc4ccccc4)cnc3=N)Oc3ccc4ccccc4c32)cc1OC (centres undefined) .
Response: label 1

Query: Next molecule up: CC(C)(C)OC(=O)Nc1ncnc2c1C(c1ccccc1)c1c(ccc3ccccc13)O2 (centres undefined)
Response: label 0

Query: Next molecule up: COc1ccc(C2c3c(nc(C)[nH]c3=O)Oc3ccc4ccccc4c32)cc1OC (centres undefined)
Response: label 0

Query: Next molecule up: COc1ccc(C2c3c(nc(Cc4ccccc4)[nH]c3=O)Oc3ccc4ccccc4c32)cc1OC (centres undefined)
Response: label 0

Query: Next molecule up: CCOc1ccc(C2c3c(ncn(-c4ccccc4)c3=N)Oc3ccc4ccccc4c32)cc1OCC (centres undefined)
Response: label 1

Query: Next molecule up: COc1cccc(C2c3c(ncn(-c4ccc(NC(C)=O)cc4)c3=N)Oc3ccc4ccccc4c32)c1 (centres undefined)
Response: label 1

Query: Next molecule up: COc1cccc(C2c3c(ncn(-c4ccc(C)cc4)c3=N)Oc3ccc4ccccc4c32)c1 (centres undefined)
Response: label 1

Query: Next molecule up: COc1ccc(C2c3ccc4ccccc4c3Oc3ncn(CCN4CCOCC4)c(=N)c32)cc1OC (centres undefined)
Response: label 1

Query: Next molecule up: COc1ccc(C2c3ccc(OCc4ccccc4)cc3Oc3ncn(CCN4CCOCC4)c(=N)c32)cc1OC (centres undefined)
Response: label 1

Query: Next molecule up: N=c1c2c(ccn1-c1ccccc1)Oc1ccc3ccccc3c1C2c1ccccc1 (centres undefined)
Response: label 1

Query: Next molecule up: COc1cccc(C2c3c(ncn(-c4ccc(C#N)cc4)c3=N)Oc3ccc4ccccc4c32)c1 (centres undefined)
Response: label 1

Query: Next molecule up: O=C(Nc1ncnc2c1C(c1ccccc1)c1c(ccc3ccccc13)O2)c1ccccc1 (centres undefined)
Response: label 1

Query: Next molecule up: COc1cccc(C2c3c(ncn(-c4ccccc4)c3=N)Oc3ccc4ccccc4c32)c1OC (centres undefined)
Response: label 1

Query: Next molecule up: COc1cccc(C2c3c(ncn(-c4ccccc4C)c3=N)Oc3ccc4ccccc4c32)c1 (centres undefined)
Response: label 1

Query: Next molecule up: COc1cccc(C2C(C#N)=C(NC(=O)CCc3ccccc3)Oc3ccc4ccccc4c32)c1 (centres undefined)
Response: label 0

Query: Next molecule up: COc1ccc(C2c3c(ncn(CCCc4ccccc4)c3=N)Oc3ccc4ccccc4c32)cc1OC (centres undefined)
Response: label 1

Query: Next molecule up: N#CC1=C(NC=NCc2ccccc2)Oc2ccc3ccccc3c2C1c1ccccc1 (centres undefined)
Response: label 1

Query: Next molecule up: Nc1ncnc2c1C(c1ccccc1)c1c(ccc3ccccc13)O2 (centres undefined)
Response: label 1

Query: Next molecule up: COc1cccc(C2c3c(ncn(CCCN4CCOCC4)c3=N)Oc3ccc4ccccc4c32)c1 (centres undefined)
Response: label 1

---

molecular target: Neuropeptide S receptor (Homo sapiens); assay: Confirmation Concentration-Response Assay for Antagonists of the Neuropeptide S Receptor: Robust Characterization of Calcium Signal Transduction; conditions: CHO-NPSR cells, NPS-induced calcium fluorescence (FDSS); series mostly up to 31.6 µM
Records with an inconclusive call do not appear. Activity calls are given as the source filed them. Calls come from the whole dose curve; as a rule, active = well fitted inhibition curve with a large enough effect; inconclusive = small, poorly fitted or top-dose-only effect, or another doubt; inactive = no such curve, though single readings can be large or run the other way.
Select the correct class. Options are active, inactive and nothing else.

Query: Please let me know the test result on file for COc1cccc(C2c3c(ncn(-c4ccc(Br)cc4)c3=N)Oc3ccc4ccccc4c32)c1 (stereo not given) .
Response: active

Query: Next molecule up: O=C(CCc1ccccc1)Nc1ncnc2c1C(c1ccccc1)c1c(ccc3ccccc13)O2 (stereo not given)
Response: active

Query: Next molecule up: COc1cccc(C2c3c(ncn(-c4ccccc4C(C)(C)C)c3=N)Oc3ccc4ccccc4c32)c1 (stereo not given)
Response: active

Query: Next molecule up: COc1cccc(C2c3c(ncn(-c4cccc(OC)c4)c3=N)Oc3ccc4ccccc4c32)c1 (stereo not given)
Response: active

Query: Next molecule up: COc1ccc(C2C3=C(N=CN(CCN4CCOCC4)C3N)Oc3ccccc32)cc1OC (stereo not given)
Response: inactive
